# credit: patent US11753403B2

Reported values of pIC50 for individual entries
Experimental System: Human eIF4E (aa 28-217) / biotin labeled 4G2 peptide (Homo sapiens (Human), UniProt P06730)
Sequence (P06730 28-217): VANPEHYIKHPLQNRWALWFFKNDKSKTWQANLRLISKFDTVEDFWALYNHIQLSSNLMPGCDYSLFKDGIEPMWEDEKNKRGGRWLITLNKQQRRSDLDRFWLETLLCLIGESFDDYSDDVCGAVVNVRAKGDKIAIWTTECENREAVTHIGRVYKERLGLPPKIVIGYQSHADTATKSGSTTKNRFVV
Test Protocol: Human eIF4E/4G2 binding assay (TR-FRET)
Condition Info: Human eIF4E/4G2 TR-FRET binding assay; head says IC50, legend says EC50
pIC50: −log10 of the molar value.

Example entries begin here.
• CC(C)c1sc(NCC(Cc2cccc(O)c2)C(=O)O)nc1-c1ccc(Cl)c(Cl)c1 (stereo not drawn) = 5.00 to 6.00
• CC(C)c1sc(Nc2cc(-c3ccccc3)sc2C(=O)O)nc1-c1ccc(Cl)c(Cl)c1 = ≥ 6.00
• CC(C)Cc1sc(N(CCC(=O)O)Cc2ccccc2)nc1-c1cccc(Cl)c1 = 5.00 to 6.00

Prompt: What does the record list as pIC50 for `CC(C)Cc1sc(Nc2ccccc2C(=O)O)nc1-c1ccc(Cl)c(Cl)c1` ?
Response: 5.00 to 6.00

Prompt: Same read-out for CC(C)Cc1sc(N2CCN(C)C(C(=O)O)C2)nc1-c1ccc(Cl)c(Cl)c1 (stereo not drawn) ?
Response: < 5.00

Prompt: Same read-out for `CC(C)c1sc(Nc2ncccc2C(=N)N)nc1-c1ccc(Cl)c(Cl)c1` ?
Response: < 5.00

Prompt: Same read-out for CC(C)Cc1sc(NCC(Cc2cccc3c2OCO3)C(=O)O)nc1-c1ccc(Cl)c(Cl)c1 (stereo not drawn) ?
Response: ≥ 6.00

Prompt: Same read-out for CC(C)Cc1sc(NCC(Cc2ccc(N)nc2)C(=O)O)nc1-c1ccc(Cl)c(Cl)c1 (stereo not drawn) ?
Response: < 5.00

Prompt: Same read-out for O=C(O)C(CNc1nc(-c2ccc(Cl)c(Cl)c2)c(C2CCCC2)s1)Cc1ccccc1 (stereo not drawn) ?
Response: ≥ 6.00
